assay: Cytotoxicity against human HepG2 cells assessed as inhibition of cell growth incubated for 72 hrs by MTT assay; assay type: toxicity, cell-based

{"sample-smiles": "O=c1occ(-c2ccc(O)cc2)c2cc(O)ccc12", "IC50 at 72 h": "> 100 µM"}

* * *

tested on: Plasmodium falciparum; assay: Antimalarial activity against Plasmodium falciparum 3D7 assessed as reduction in parasitemia measured after 72 hrs by SYBR Green I dye based fluorescence assay; type: functional, organism-based; settings: 3D7, 72 h
pIC50: −log10 of the molar value.
Each entry below carries its recorded pIC50.

{"sample-smiles": "CCc1nc(N)nc(N)c1-c1ccc(Cl)cc1", "pIC50": 7.22}
{"sample-smiles": "O=c1occ(-c2ccc(O)cc2)c2cc(O)ccc12", "pIC50": 4.72}
{"sample-smiles": "C[C@@H]1CC[C@H]2[C@@H](C)C(=O)O[C@@H]3O[C@@]4(C)CC[C@@H]1[C@]32OO4", "pIC50": 8.22}

FYI, the data here is from ChEMBL document CHEMBL5321250.
